# credit: ChEMBL document CHEMBL1157539

The following compounds are shown together with reported Inhibition values.
tested on: Plasmodium falciparum; assay: GSK_TCMDC: Inhibition of Plasmodium falciparum 3D7 in whole red blood cells, using parasite LDH activity as an index of growth. Test compounds present at 2uM; format: functional
endpoint label: Inhibition (%)

>>> meas_value("COc1ccccc1C1CCN(C2CCC(NC(=O)/C=C/c3ccc(C(F)(F)F)cc3)CC2)CC1 (stereo not drawn)")
88
>>> meas_value("Cc1ccc(F)c(C(=O)Nc2cccc(-c3nn4ccccc4c3-c3ccnc(Nc4cccc(F)c4)n3)c2)c1F")
98
>>> meas_value("COc1ccc2nccc([C@@H](O)CN3CCC(NCc4nc5cc(F)cc(F)c5[nH]4)CC3)c2c1.O=C(O)C(=O)O")
99
>>> meas_value("CN1CCN(c2cc(-c3ccncc3)nc(-c3cccnc3)n2)CC1")
100
>>> meas_value("CN1CCN(CCCN(Cc2csc(-c3ccc(CNCc4ccccc4)cc3)n2)C(=O)c2cc(F)cc(F)c2)CC1.O=C(O)C(F)(F)F")
97
>>> meas_value("CC(C)[C@H](NC(=O)c1ccc(O)c(-c2ccc(Cl)c(Cl)c2)c1)C(=O)NCCN1CCOCC1")
95
>>> meas_value("OCCCCCCNc1ccnc2[nH]c3ccc(I)cc3c12")
100
>>> meas_value("Cc1n[nH]c2cc(F)c(-c3cc(OC[C@@H](N)Cc4ccccc4)cnc3-c3ccoc3)cc12.O=C(O)C(F)(F)F")
95

###

List of Inhibition values.
tested on: HepG2; assay: GSK_TCMDC: Percent inhibition of human HepG2 cell line. Test compounds present at 10uM.; format: functional
endpoint label: Inhibition (%)

>>> meas_value("COc1ccc2ncc(C#N)c(CCN3CCC(NCc4ccc5c(c4)NC(=O)CO5)CC3)c2c1.Cl")
25
>>> meas_value("O=C1Nc2cccc3c2C1(CCCCN1CCC(c2cc4ccncc4[nH]2)CC1)CCC3 (centres undefined)")
0
>>> meas_value("O=C(O)C(F)(F)F.c1cc(-c2ccc(CNC3CC3)cc2)cc(-c2nc3ccccc3[nH]2)c1")
17
>>> meas_value("CSc1cccc(NC(=O)c2cc3ccccc3oc2=O)c1")
0
>>> meas_value("O=C(Nc1ccc(Cl)c(C(F)(F)F)c1)NC1CCN(CCCCCNC(=O)C2CC2c2ccc(Cl)c(Cl)c2)CC1 (centres undefined)")
79
>>> meas_value("c1cn(CCCNc2ncc(-c3ccsc3)c(-c3nccs3)n2)cn1")
0
>>> meas_value("O=C(NC1CCN(CC2(c3ccccc3F)CCCC2)CC1)c1cc[nH]n1")
0
>>> meas_value("NC1CCCN(Cc2ccc(-c3ccc(-c4nc5ccccc5[nH]4)s3)cc2)C1.O=C(O)C(F)(F)F (centres undefined)")
40
>>> meas_value("CN1CCN(Cc2cc(NC(=O)c3ccc(-c4ccc(Cl)cc4Cl)cc3)ccc2-c2ccccc2)CC1")
52

###

tested on: HepG2; test: GSK_TCMDC: Percent inhibition of human HepG2 cell line. Test compounds present at 10uM.; assay type: functional
Record true (1) whenever Inhibition is at 10% or higher; record false (0) when lower.

>>> class_assignment("CCn1ccc2c3c(N)nc(N)nc3ccc21")
"true (1)"
>>> class_assignment("Cc1cccc2nc(-c3cccc(-c4cccc(NC(=O)Nc5ccc(Cl)cc5)c4)c3)[nH]c12")
"true (1)"
>>> class_assignment("COc1c(C(=O)NC2CCN(Cc3ccccc3)C2)cnc2ccccc12.Cl (stereo not drawn)")
"false (0)"
>>> class_assignment("CNC(=O)COC(=O)c1c2c(nc3ccccc13)C(=Cc1ccc3c(c1)OCO3)CCC2")
"false (0)"
>>> class_assignment("Cc1nc2nc(N)nc(N)c2c(C)c1Cc1cccc(C#N)c1.Cl")
"true (1)"
>>> class_assignment("CCCCCCCc1[nH]c2ccccc2c(=O)c1C")
"true (1)"
>>> class_assignment("Cc1ccc(O)cc1Nc1ccnc2cc(-c3csc(CNCCN4CCOCC4)n3)ccc12")
"false (0)"
>>> class_assignment("CC(C)C(C(=O)Nc1ccc2c(c1)OCO2)c1ccc(Cl)cc1 (stereo not drawn)")
"true (1)"
>>> class_assignment("OC(CNCc1ccccc1Oc1ccccc1)c1cccc(C(F)(F)F)c1 (stereo not drawn)")
"false (0)"
>>> class_assignment("O=C(NC1CCN(Cc2ccccc2)CC1)c1cc(C(=O)NC2CCN(Cc3ccccc3)CC2)cc(C(=O)NC2CCN(Cc3ccccc3)CC2)c1")
"true (1)"
>>> class_assignment("Cc1cc(Cl)ccc1NC(=O)Nc1ccc2nccc(N3CCN(C)CC3)c2c1")
"false (0)"
>>> class_assignment("Cc1ccccc1Oc1nc2ccccc2nc1SCC(=O)NC(C)C")
"false (0)"
